Values compiled from patent EP2022493A1.

# testDescription: Determination of the logP values by HPLC on reversed-phase column (C 18)
# Assay type: physicochemical
# setupConditions: 0.1% aqueous formic acid/acetonitrile; HPLC, reversed-phase C 18, 40 °C; [b] 0.1% aqueous formic acid and acetonitrile at pH 2.7; linear gradient from 10 % to 95 % (v/v) acetonitrile
measuredParameter: chromatographic logP

molsmiles=CSC[C@H](C)NC(=O)c1c(Cl)cccc1C(=O)Nc1ccc(C(F)(F)C(F)(F)F)c(F)c1C readoutvalue=3.94

---

Measured chromatographic logP values are reported for all entries that follow.
# testDescription: Determination of the logP values by HPLC on reversed-phase column (C 18)
# Type: physicochemical
# setupConditions: 0.1% aqueous phosphoric acid/acetonitrile; method [a]: 0.1% aqueous phosphoric acid and acetonitrile at pH 2.3; linear gradient from 10 to 95 % (v/v) acetonitrile; HPLC reversed-phase C 18, 40 °C
# Method: Determination of the logP values: The lambda max values were determined in the maxima of the chromatographic signals using the UV spectra from 190 nm to 400 nm.
measuredParameter: chromatographic logP

molecule="Cc1c(NC(=O)c2cccc(I)c2C(=O)N[C@@H](C)CS(C)(=O)=O)ccc(C(F)(F)C(F)(F)F)c1F [Compound 162]" readoutvalue=2.97
molecule="CCS(=O)(=O)C[C@H](C)NC(=O)c1c(I)cccc1C(=O)Nc1ccc(C(F)(C(F)(F)F)C(F)(F)F)c(F)c1C [Compound 130]" readoutvalue=3.47
molecule="CCSC[C@H](C)NC(=O)c1c(Cl)cccc1C(=O)Nc1ccc(C(F)(F)C(F)(F)F)c(F)c1C [Compound 380]" readoutvalue=4.21
molecule="CSC[C@H](C)NC(=O)c1c(Br)cccc1C(=O)Nc1ccc(C(F)(F)C(F)(F)F)c(F)c1C [Compound 388]" readoutvalue=3.93
molecule="Cc1cc(C(C(F)(F)F)C(F)(F)F)c(F)cc1NC(=O)c1cccc(Cl)c1C(=O)N[C@@H](C)C[S+](C)[O-] (some centres unmarked) [Compound 414]" readoutvalue=2.58

---

# testDescription: Determination of the logP values by HPLC on reversed-phase column (C 18)
# Assay type: physicochemical
# setupConditions: 0.1% aqueous phosphoric acid/acetonitrile; HPLC, reversed-phase C 18, 40 °C; [a] 0.1% aqueous phosphoric acid and acetonitrile at pH 2.3; linear gradient from 10 to 95 % (v/v) acetonitrile
# Protocol: Determination of the logP values: The lambda max values were determined in the maxima of the chromatographic signals using the UV spectra from 190 nm to 400 nm.
measuredParameter: chromatographic logP

compound="CCSC[C@H](C)NC(=O)c1c(I)cccc1C(=O)Nc1ccc(C(C(F)F)C(F)(F)F)cc1C (some centres unmarked) [Compound 210]" measuredparameter="chromatographic logP" readoutvalue=3.63
compound="CCS(=O)(=O)C[C@H](C)NC(=O)c1c(I)cccc1C(=O)Nc1ccc(C(F)(C(F)F)C(F)(F)F)cc1Cl (some centres unmarked) [Compound 251]" measuredparameter="chromatographic logP" readoutvalue=3.12
compound="CCS(=O)(=O)C[C@H](C)NC(=O)c1c(Cl)cccc1C(=O)Nc1ccc(C(F)(F)C(F)(F)F)c(Cl)c1C [Compound 347]" measuredparameter="chromatographic logP" readoutvalue=3.14
compound="C[C@@H](CS(C)(=O)=O)NC(=O)c1c(I)cccc1C(=O)Nc1ccc(C(F)(C(F)F)C(F)(F)F)cc1F (some centres unmarked) [Compound 283]" measuredparameter="chromatographic logP" readoutvalue=2.72
compound="CSC[C@H](C)NC(=O)c1c(I)cccc1C(=O)Nc1ccc(C(C(F)F)C(F)(F)F)cc1Br (some centres unmarked) [Compound 227]" measuredparameter="chromatographic logP" readoutvalue=3.51
compound="CCS(=O)(=O)C[C@H](C)NC(=O)c1c(I)cccc1C(=O)Nc1ccc(C(F)(C(F)(F)F)C(F)(F)Br)cc1C (some centres unmarked) [Compound 194]" measuredparameter="chromatographic logP" readoutvalue=3.49
compound="Cc1c(NC(=O)c2cccc(Cl)c2C(=O)N[C@@H](C)CS(C)(=O)=O)ccc(C(F)(F)C(F)(F)F)c1F [Compound 363]" measuredparameter="chromatographic logP" readoutvalue=2.82
compound="C[C@@H](CS(C)(=O)=O)NC(=O)c1c(I)cccc1C(=O)Nc1ccc(C(C(F)F)C(F)(F)F)cc1F (some centres unmarked) [Compound 291]" measuredparameter="chromatographic logP" readoutvalue=2.5
compound="Cc1c(NC(=O)c2cccc(I)c2C(=O)N[C@@H](C)C[S+](C)[O-])ccc(C(F)(F)C(F)(F)F)c1F (some centres unmarked) [Compound 323]" measuredparameter="chromatographic logP" readoutvalue=2.5
compound="CCSC[C@H](C)NC(=O)c1c(I)cccc1C(=O)Nc1ccc(C(C(F)F)C(F)(F)F)cc1Br (some centres unmarked) [Compound 243]" measuredparameter="chromatographic logP" readoutvalue=3.78
compound="CSC[C@H](C)NC(=O)c1c(Br)cccc1C(=O)Nc1ccc(C(F)(C(F)F)C(F)(F)F)cc1Br (some centres unmarked) [Compound 267]" measuredparameter="chromatographic logP" readoutvalue=3.81
compound="C[C@@H](CS(C)(=O)=O)NC(=O)c1c(I)cccc1C(=O)Nc1ccc(C(C(F)F)C(F)(F)F)cc1Cl (some centres unmarked) [Compound 259]" measuredparameter="chromatographic logP" readoutvalue=2.69
compound="C[C@@H](CS(C)(=O)=O)NC(=O)c1c(I)cccc1C(=O)Nc1ccc(C(C(F)F)C(F)(F)F)cc1Br (some centres unmarked) [Compound 275]" measuredparameter="chromatographic logP" readoutvalue=2.71
compound="CCS(=O)(=O)C[C@H](C)NC(=O)c1c(I)cccc1C(=O)Nc1ccc(C(C(F)F)C(F)(F)F)cc1Br (some centres unmarked) [Compound 299]" measuredparameter="chromatographic logP" readoutvalue=2.87
compound="CC[S+]([O-])C[C@H](C)NC(=O)c1c(I)cccc1C(=O)Nc1ccc(C(F)(C(F)(F)F)C(F)(F)F)c(F)c1C (some centres unmarked) [Compound 339]" measuredparameter="chromatographic logP" readoutvalue=2.97
compound="CCS(=O)(=O)C[C@H](C)NC(=O)c1c(I)cccc1C(=O)Nc1ccc(C(F)(C(F)F)C(F)(F)F)cc1F (some centres unmarked) [Compound 307]" measuredparameter="chromatographic logP" readoutvalue=2.89
compound="CCSC[C@H](C)NC(=O)c1c(I)cccc1C(=O)Nc1ccc(C(C(F)F)C(F)(F)F)cc1Cl (some centres unmarked) [Compound 235]" measuredparameter="chromatographic logP" readoutvalue=3.76

---

# testDescription: Determination of the logP values by HPLC on reversed-phase column (C 18)
# Assay type: physicochemical
# setupConditions: 0.001 m aqueous nh4hco3/acetonitrile; method [c]: 0.001 molar aqueous NH4HCO3 solution and acetonitrile at pH 7.8; linear gradient from 10 % to 95 % acetonitrile (v/v); HPLC reversed-phase C 18, 40 °C
Under this convention, Satisfied denotes chromatographic logP strictly below 3 and Not satisfied denotes chromatographic logP at or above 3.

molecule="CCSC[C@H](C)NC(=O)c1c(I)cccc1C(=O)Nc1ccc(C(F)(C(F)(F)F)C(F)(F)Br)cc1C (stereo partly drawn)" category="Not satisfied"
molecule="Cc1cc(C(C(F)(F)F)C(F)(F)F)c(F)cc1NC(=O)c1cccc(Br)c1C(=O)N[C@@H](C)C[S+](C)[O-] (stereo partly drawn)" category=Satisfied
molecule="Cc1cc(C(F)(C(F)F)C(F)(F)F)ccc1NC(=O)c1cccc(Cl)c1C(=O)N[C@@H](C)CS(C)(=O)=O (stereo partly drawn)" category=Satisfied
molecule="Cc1cc(C(C(F)(F)F)C(F)(F)F)c(F)cc1NC(=O)c1cccc(Cl)c1C(=O)N[C@@H](C)C[S+](C)[O-] (stereo partly drawn)" category=Satisfied
molecule="Cc1c(NC(=O)c2cccc(Cl)c2C(=O)N[C@@H](C)C[S+](C)[O-])ccc(C(C(F)(F)F)C(F)(F)F)c1F (stereo partly drawn)" category=Satisfied
molecule=Cc1cc(C(F)(C(F)(F)F)C(F)(F)F)ccc1NC(=O)c1cccc(I)c1C(=O)N[C@@H](C)CS(C)(=O)=O category="Not satisfied"

---

# testDescription: Determination of the logP values by HPLC on reversed-phase column (C 18)
# Assay type: physicochemical
# setupConditions: 0.001 m aqueous nh4hco3/acetonitrile; HPLC, reversed-phase C 18, 40 °C; [c] 0.001 molar aqueous NH4HCO3 solution and acetonitrile at pH 7.8; linear gradient from 10 % to 95 % acetonitrile (v/v)
measuredParameter: chromatographic logP

molecule="CCS(=O)(=O)C[C@H](C)NC(=O)c1c(I)cccc1C(=O)Nc1ccc(C(C(F)F)C(F)(F)F)cc1F (some centres unmarked)" readoutvalue=2.69
molecule="CCS(=O)(=O)C[C@H](C)NC(=O)c1c(I)cccc1C(=O)Nc1ccc(C(C(F)F)C(F)(F)F)cc1Br (some centres unmarked)" readoutvalue=2.92
molecule="CCSC[C@H](C)NC(=O)c1c(I)cccc1C(=O)Nc1ccc(C(F)(C(F)F)C(F)(F)F)cc1C (some centres unmarked)" readoutvalue=3.96
molecule="CCSC[C@H](C)NC(=O)c1c(I)cccc1C(=O)Nc1ccc(C(C(F)F)C(F)(F)F)cc1Cl (some centres unmarked)" readoutvalue=3.79
molecule="C[C@@H](CS(C)(=O)=O)NC(=O)c1c(I)cccc1C(=O)Nc1ccc(C(C(F)F)C(F)(F)F)cc1F (some centres unmarked)" readoutvalue=2.54
molecule="CSC[C@H](C)NC(=O)c1c(I)cccc1C(=O)Nc1ccc(C(C(F)F)C(F)(F)F)cc1Br (some centres unmarked)" readoutvalue=3.54
molecule="CCS(=O)(=O)C[C@H](C)NC(=O)c1c(I)cccc1C(=O)Nc1ccc(C(F)(C(F)F)C(F)(F)F)cc1Cl (some centres unmarked)" readoutvalue=3.18
molecule="C[C@@H](CS(C)(=O)=O)NC(=O)c1c(I)cccc1C(=O)Nc1ccc(C(F)(C(F)F)C(F)(F)F)cc1F (some centres unmarked)" readoutvalue=2.76
